target: SIK1 (Homo sapiens (Human), UniProt P57059)
Sequence (P57059 whole entry): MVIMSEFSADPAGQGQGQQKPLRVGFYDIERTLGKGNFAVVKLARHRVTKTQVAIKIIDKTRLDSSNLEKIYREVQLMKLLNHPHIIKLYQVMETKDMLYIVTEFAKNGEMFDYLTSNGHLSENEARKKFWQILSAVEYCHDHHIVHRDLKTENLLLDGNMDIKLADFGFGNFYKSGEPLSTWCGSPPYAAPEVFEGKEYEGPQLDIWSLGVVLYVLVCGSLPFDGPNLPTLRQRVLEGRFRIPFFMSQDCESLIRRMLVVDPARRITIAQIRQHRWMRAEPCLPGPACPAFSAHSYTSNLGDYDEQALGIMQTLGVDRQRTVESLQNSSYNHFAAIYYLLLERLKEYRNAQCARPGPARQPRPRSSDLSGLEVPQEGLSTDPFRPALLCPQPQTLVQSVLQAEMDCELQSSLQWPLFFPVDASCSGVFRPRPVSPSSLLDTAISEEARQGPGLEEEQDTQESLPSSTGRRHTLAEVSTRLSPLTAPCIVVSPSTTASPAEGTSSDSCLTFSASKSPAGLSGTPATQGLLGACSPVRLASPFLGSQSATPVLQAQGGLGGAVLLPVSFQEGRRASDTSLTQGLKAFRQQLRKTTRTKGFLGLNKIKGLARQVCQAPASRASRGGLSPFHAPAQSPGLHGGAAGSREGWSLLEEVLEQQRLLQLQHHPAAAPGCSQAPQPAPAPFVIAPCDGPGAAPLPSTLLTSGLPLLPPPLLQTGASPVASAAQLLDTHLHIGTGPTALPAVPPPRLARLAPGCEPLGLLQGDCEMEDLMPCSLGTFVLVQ
measurement-name: pIC50
One number for each entry, as −log10 of the molar value.

// batch mode: one pIC50 value per listed entry
1. CCc1nnc(-c2c(OC)cc(-c3cnc4cc(OCC5(C)COC5)ccn34)cc2OC)o1 [Example 39]
2. CC1(COc2ccc3c(c2)ncn3-c2ccc3cccc(C4CCNC4)c3n2)COC1 (centres unmarked) [Example 16]
3. N#Cc1ccc(-c2cnc3cc(C(=O)NCc4nc5ccccc5[nH]4)ccn23)cc1 [Example 22]
4. CCc1nnc(-c2c(OC)cc(-c3cnc4cc(OCc5ccc(C)nc5)ccn34)cc2OC)o1 [Example 42]
5. CN1CC(c2cccc3ccc(-n4cnc5cc(OCC6(C)COC6)ccc54)nc23)C1 [Example 15]
6. CC1(COc2ccc3c(c2)ncn3-c2ccc3cccc(N4CCC5(CCN5)CC4)c3n2)COC1 [Example 3]

Output:
1. 5.57
2. 7.78
3. 4.89
4. 5.93
5. 8.36
6. 7.74

// input: 3 compounds below; output: pIC50 for each
1. COCCN1CCC12CCN(c1cccc3ccc(-n4cnc5cc(OCC6(C)COC6)ccc54)nc13)CC2 [Example 12]
2. COc1cc(-c2cnc3cc(C(=O)NCc4ccc(C)nc4)ccn23)cc(OC)c1C(=O)NCC(F)(F)F [Example 68]
3. N#Cc1ccc(-n2cnc3cc(C(=O)NCc4cn5ccccc5n4)ccc32)cc1 [Example 33]

Output:
[6.85, 7.02, 5.27]

Give pIC50 for all compounds that follow.
1. CC1(COc2ccc3c(c2)ncn3-c2ccc3cccc(N4CCCC4CN)c3n2)COC1 (centres unmarked) [Example 8]
2. CCn1cc(-c2ccn3c(-c4ccc(-c5nnc(C)o5)cc4)cnc3c2)cn1 [Example 56]

Output:
1: 7.30; 2: 5.51

Values were extracted from patent US20240025892A1.
